Biological target: MAP kinase p38 (Homo sapiens, UniProt O15264+Q15759+Q16539+P53778)
Assay: Inhibition of LPS-induced p38-related TNF-alpha production in human peripheral blood mononuclear cells
Format: functional
quantity measured: IC50 (nM)

a. C[C@H](Nc1cc(-c2c(-c3ccccc3)nc3nc(N)ccn23)ccn1)c1ccccc1
b. Nc1ccn2c(-c3ccncn3)c(-c3ccccc3)nc2n1
stdin: // compare: a vs b , metric IC50, want the smaller Select an item and report its label.
stdout: a
(a: 2 nM, b: 304 nM)

###

Target: Mitogen-activated protein kinase 14 (Mus musculus, UniProt P47811)
Sequence (P47811 whole entry): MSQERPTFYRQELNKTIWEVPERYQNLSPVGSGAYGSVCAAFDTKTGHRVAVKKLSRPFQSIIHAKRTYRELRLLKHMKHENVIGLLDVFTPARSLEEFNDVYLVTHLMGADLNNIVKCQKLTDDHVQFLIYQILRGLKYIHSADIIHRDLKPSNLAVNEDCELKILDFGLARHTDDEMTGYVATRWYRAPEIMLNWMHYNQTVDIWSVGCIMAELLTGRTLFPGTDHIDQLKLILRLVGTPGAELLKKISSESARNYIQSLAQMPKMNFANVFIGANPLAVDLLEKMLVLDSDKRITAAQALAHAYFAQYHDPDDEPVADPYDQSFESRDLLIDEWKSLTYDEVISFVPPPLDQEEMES
Assay: Inhibition of murine p38 alpha kinase
quantity measured: IC50 (nM)

Here are 8 compounds together with their reported answers.
> print(dat)
                               given.smiles  quantity.measured  meas.value
1  Nc1ccn2c(-c3ccnc(NCc4ccccc4)c3)c(-c3ccc(F)cc3)nc2n1               IC50           6
2  C[C@H](Nc1cc(-c2c(-c3ccccc3)nc3nc(N)ccn23)ccn1)c1ccccc1               IC50           1
3  Nc1ccn2c(-c3ccnc(N[C@H]4CCCc5ccccc54)c3)c(-c3ccccc3)nc2n1               IC50           8
4  Fc1ccc(-c2[nH]c3ccc4[nH]c(Cc5ccccc5)nc4c3c2-c2ccncc2)cc1               IC50          22
5  C[C@@H](Nc1nccc(-c2c(-c3ccccc3)nc3nc(N)ccn23)n1)c1ccccc1               IC50          37
6  COC[C@H](C)Nc1cc(-c2c(-c3ccccc3)nc3nc(N)ccn23)ccn1               IC50           2
7  COc1nccc(-c2c(-c3ccccc3)nc3nc(N)ccn23)n1               IC50         210
8      Nc1ccn2c(-c3ccncn3)c(-c3ccccc3)nc2n1               IC50         990

A. C[C@H](Nc1nccc(-c2c(-c3ccccc3)nc3nc(N)ccn23)n1)c1ccccc1
B. CSc1nccc(-c2c(-c3ccccc3)nc3nc(N)ccn23)n1
stdin: Larger number for IC50: A , or B ? Provide the label of your selected option as the answer.
stdout: B
(B: 457 nM, A: 8 nM)

###

Molecular target: MAP kinase p38 (Homo sapiens, UniProt O15264+Q15759+Q16539+P53778)
Assay: Inhibition of LPS-induced p38-related TNF-alpha production in human peripheral blood mononuclear cells
Assay type: functional
quantity measured: IC50 (nM)

1. COc1nccc(-c2c(-c3ccccc3)nc3nc(N)ccn23)n1
2. Nc1ccn2c(-c3ccnc(NCc4ccccc4)c3)c(-c3ccc(F)cc3)nc2n1
3. CSc1nccc(-c2c(-c3ccccc3)nc3nc(N)ccn23)n1
stdin: // smallest IC50 at index 0, largest at the end A ranking is expressed here by listing the labels in the requested order.
stdout: 2, 3, 1
(2: 6 nM, 3: 28 nM, 1: 90 nM)

The measurements presented in this section are drawn from ChEMBL document CHEMBL1136507.
